System: HeLa MZ
assay.method.text: filipin (cholesterol) integrated intensity within LBPA endosomes, Z-score; higher = more cholesterol in LBPA endosomes
setup.conditions: compound concentration in added solution (µM; 5 µl added to 20 µl cells): 10; 18 h
Where a name gives a salt, the structure may show the parent alone.
# cutoff -0.3 applies to filipin (z-score); >= gives yes (1), < gives no (0)

COc1ccc(Cc2nccc3cc(OC)c(OC)cc23)cc1OC [Papaverine hydrochloride]
no (0)
Cc1cccc(C)c1NC1=NCCCS1
yes (1)
COc1cccc(C2(O)CCCCC2CN(C)C)c1 (centres undefined) [Tramadol hydrochloride]
yes (1)
O=[N+]([O-])O[C@@H]1CO[C@H]2[C@@H]1OC[C@@H]2O [Isosorbide mononitrate]
no (0)
CCN[C@@H](C)Cc1cccc(C(F)(F)F)c1 [Dexfenfluramine hydrochloride]
no (0)

We next turn to a different compound, shown below.
In: State whether the measured filipin (z-score) reaches -0.3, counting equality as reaching it, for C[N+]1(C)[C@@H]2CC[C@H]1C[C@@H](OC(=O)C(CO)c1ccccc1)C2 (some centres undefined) [Methylatropine nitrate]
Out: yes (1)
